- System: HCC827 cells (EGFR-delE746_A750)
- protocolText: CellTiter-Glo viability assay, HCC827;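 note: luminescence from ATP content as a measure of metabolically active cells, in RPMI with 10% FBS, compound added as serial dilutions after 24 h of preculture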
- Assay type: cell-based
- measurementParameters: Homo sapiens, HCC827, 96 h, read-out: EGFR CTG EC50 HCC827
experimentalReadout: EC50

Tell me measured EC50 for C=CC(=O)Nc1cc(Nc2nccc(-c3cn(C)c4ccccc34)n2)c(OC)cc1N(C)CCN(C)C [Osimertinib, osimertinib, reference compound] please.
< 14 nM

###

- protocolText: In vivo pharmacokinetics in mice
- measurementParameters: male, RjOrl:SWISS (CD1), mouse, plasma, IP 20 mg kg-1
experimentalReadout: Cmax (ng/mL)
A number alone suffices; assume ng/mL.

Tell me measured Cmax for C=CC(=O)Nc1cccc(-c2c(-c3ccc(N4CCN(C)CC4)cc3)[nH]c3ncnc(OCC(C)C)c23)c1 [Compound 19h] please.
1770

The measured values listed here are drawn from paper PMC6886544.
